ASSAY METHOD TEXT: optical density shifts of acrAB sulA E. coli – strain DRC41, OD650, 48 h, E. coli filamentation inducer project, primary screen (AID 1152);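 note: E. coli MC1000 strain DRC41 lacking acrAB efflux pump and sulA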
CONDITION INFO: higher = more signal, called active from +8 up or from −8 down
REPORTED METRIC: z-score
// return just the number, without any unit appended

These recorded examples may help you get a feel for the data.
- MOLECULE: "CC(C)N1C(=O)c2ccccc2[C@](C)(C(=O)NC2CC2)[C@@H]1c1ccc(CO)cc1"
  REPORTED METRIC: "z-score"
  OBSERVED VALUE: 0.897
- MOLECULE: "COC(=O)[C@@]1(Cc2ccc(OC)cc2)[C@H]2c3cc(C(=O)N4CCCC4)n(CCc4ccccn4)c3C[C@H]2CN1C(=O)c1ccccc1"
  REPORTED METRIC: "z-score"
  OBSERVED VALUE: -1.76
- MOLECULE: "COC(=O)[C@@]1(Cc2ccccc2)[C@H]2c3cc(C(=O)N(C)C)n(Cc4cc(F)c(F)c(F)c4)c3C[C@H]2CN1C(=O)c1ccccc1"
  REPORTED METRIC: "z-score"
  OBSERVED VALUE: -1.61
- MOLECULE: "O=C1c2ccccc2[C@](Cc2ccccc2I)(C(=O)O)[C@H](c2ccc(CO)cc2)N1Cc1ccccc1C(F)(F)F"
  REPORTED METRIC: "z-score"
  OBSERVED VALUE: -0.0668

Below: the item to evaluate.
**Query** Tell us which z-score value is on record for O=c1cccc(-c2cccc3ccccc23)o1
**Result** 0.109
